tested.system: T1, human C5aR (CD88) (human, UniProt P21730 1-350)
T1 sequence (looked up): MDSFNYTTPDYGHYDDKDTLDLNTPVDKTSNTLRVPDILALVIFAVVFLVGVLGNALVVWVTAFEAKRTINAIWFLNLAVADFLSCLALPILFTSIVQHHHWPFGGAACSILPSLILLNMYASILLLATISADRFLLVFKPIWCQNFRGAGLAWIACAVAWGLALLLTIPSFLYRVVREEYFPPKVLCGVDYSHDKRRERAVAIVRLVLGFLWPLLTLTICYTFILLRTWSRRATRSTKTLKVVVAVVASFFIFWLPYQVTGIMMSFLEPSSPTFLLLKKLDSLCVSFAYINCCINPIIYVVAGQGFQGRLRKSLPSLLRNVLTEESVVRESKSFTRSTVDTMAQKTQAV
experiment.description: cell-based or functional assay
Positions of bridges follow the written chain, without caps; N, C: chain ends. Non-standard residues stand in square brackets, D forms with d. No end group written: not given here. Phe(4-tBu) = CC(C)(C)c1ccc(C[C@H](N)C(=O)O)cc1; XX1 = 2-Amino-3-(4-piperidinyl)propionic acid; hCit = NC(=O)NCCCC[C@H](N)C(=O)O; Cha = N[C@@H](CC1CCCCC1)C(=O)O; dCha = N[C@H](CC1CCCCC1)C(=O)O; Chg = N[C@H](C(=O)O)C1CCCCC1; Nle = CCCC[C@H](N)C(=O)O; Orn = NCCC[C@H](N)C(=O)O
attribute.measured: IC50 activity group, enzyme release assay

| binder | endpoint.result |
| --- | --- |
| Ac-F[Orn]P[dCha]W[Chg] (lactam (positions not given here); not fully specified (bridges); printed as Ac-Phe-[Orn-Pro-cha-Trp-Chg]) [Ac-Phe-[Orn-Pro-cha-Trp-Chg]] | ≤ 0.2 µM |
| Ac-F[Orn]P[dCha]W[Phe(4-tBu)]-NH2 [Ac-Phe-Orn-Pro-cha-Trp-Eap-NH2] | ≤ 2 µM |
| {Ph‑CH(OH)‑CH2‑CO}-[Orn]P[dCha]W[Nle] (lactam 1-C) [Ph-CH(OH)-CH2-CO-[Orn-Pro-cha-Trp-Nle]] | ≤ 0.05 µM |
| Ac-F[Orn]P[dCha]W[hCit] (lactam (positions not given here); not fully specified (bridges); printed as Ac-Phe-[Orn-Pro-cha-Trp-Hci]) [Ac-Phe-[Orn-Pro-cha-Trp-Hci]] | ≤ 2 µM |
| Ac-F[Orn]P[dCha]W[Cha] (lactam (positions not given here); not fully specified (bridges); printed as Ac-Phe-[Orn-Pro-cha-Trp-Cha]) [Ac-Phe-[Orn-Pro-cha-Trp-Cha]] | ≤ 0.2 µM |
| FXPXWR (not fully specified; Ac-; Orn2; cha4 (D); Arg(CH2CH2)6; cyclic [2-6]) [Ac-Phe-[Orn-Pro-cha-Trp-Arg(CH2CH2)]] | ≤ 2 µM |
| Ac-F[Orn]P[dCha]WY (lactam (positions not given here); not fully specified (bridges); printed as Ac-Phe-[Orn-Pro-cha-Trp-Tyr]) [Ac-Phe-[Orn-Pro-cha-Trp-Tyr]] | ≤ 0.05 µM |
| Ac-F[Orn]P[dCha]W[Phe(4-Amidin)] (lactam (positions not given here); not fully specified (bridges); printed as Ac-Phe-[Orn-Pro-cha-Trp-Phe(4-Amidin)]) [Ac-Phe-[Orn-Pro-cha-Trp-Phe(4-Amidin)]] | ≤ 2 µM |
| Ac-F[Orn]P[dCha]W[XX1] (lactam (positions not given here); not fully specified (bridges); printed as Ac-Phe-[Orn-Pro-cha-Trp-XX1]) [Ac-Phe-[Orn-Pro-cha-Trp-XX1]] | > 2 µM |
